Where do the numbers come from? From ChEMBL document CHEMBL5223145.

EXPERIMENT SUMMARY: Stabilization of GGA/GGA-motif DNA (unknown origin) assessed as increase in melting temperature
MEASURED PROPERTY: Tm (°C)

Solved cases below.
[
  {
    "SMILES STRING": "Cc1ccc2ccc(NC(=O)CCNCCC(=O)Nc3ccc4ccc(C)nc4n3)nc2n1",
    "VAL": 7.5
  },
  {
    "SMILES STRING": "Cc1ccc2ccc(NC(=O)CCN(CCCCN)CCC(=O)Nc3ccc4ccc(C)nc4n3)nc2n1",
    "VAL": 6
  }
]

P: Cc1ccc2ccc(NC(=O)OCCCNCCCOC(=O)Nc3ccc4ccc(C)nc4n3)nc2n1
Q: Cc1ccc2ccc(NC(=O)CCN(CCC(=O)Nc3ccc4ccc(C)nc4n3)C(=O)CCCN)nc2n1
Dear colleague, could you let me know whether P or Q has the lower recorded Tm? Thanks. Your choice should be expressed through its label. P
(P: 6 °C, Q: 13.8 °C)

---

EXPERIMENT SUMMARY: Stabilization of AGG/AGG-motif DNA (unknown origin) assessed as increase in melting temperature
The source made the active and inactive calls. The calls are words filed in the database; no cut-off is given here.

[
  {
    "SMILES STRING": "Cc1ccc2ccc(NC(=O)CCN(CCCCN)CCC(=O)Nc3ccc4ccc(C)nc4n3)nc2n1",
    "Activity": "Active"
  },
  {
    "SMILES STRING": "Cc1ccc2ccc(NC(=O)OCCCNCCCOC(=O)Nc3ccc4ccc(C)nc4n3)nc2n1",
    "Activity": "Active"
  },
  {
    "SMILES STRING": "Cc1ccc2ccc(NC(=O)CCNCCC(=O)Nc3ccc4ccc(C)nc4n3)nc2n1",
    "Activity": "Active"
  }
]
